system: HOP-62 NSCLC; assay: NCI tumour cell line growth inhibition, 48 h
observable: TGI

// solved cases for TGI follow
molecule	TGI
CCOC(=O)C1(C)CCC(C(=O)OC)C1=O (stereo not drawn)	> 100 µM
CC(=O)Oc1ccc(-c2nnc(-c3ccc(OC(C)=O)cc3)nn2)cc1	> 100 µM
CCCCCCCCCCN=C(N)c1ccc(N2CCN(c3ccc(C(N)=NCCCCCCCCCC)cc3)CC2)cc1	29 µM

Read the entry COc1cc(/C=C/C(=O)c2nc3cc(F)ccc3nc2C)cc(OC)c1OC and write its reported TGI.
> 100 µM

Read the entry CNCc1cccc2c1OCCOCCOCCNS(=O)(=O)c1ccc(cc1)-c1cnc(N)c(n1)C(=O)N2 and write its reported TGI.
2.96 µM

Read the entry CC1OC(OC2C(OC(=O)[C@]34CCC(C)(C)C[C@H]3C3=CC[C@@H]5[C@@]6(C)CC[C@H](OC7OC(CO)C(O)C(O)C7OC7OC(CO)C(O)C(O)C7O)C(C)(C)[C@@H]6CC[C@@]5(C)[C@]3(C)CC4)OCC(O)C2O)C(O)C(O)C1OC1OCC(O)C(O)C1O (stereo partly drawn) and write its reported TGI.
30.8 µM

Read the entry CCN(CC)/[N+]([O-])=N/OS(=O)(=O)N(C)C and write its reported TGI.
> 100 µM

Read the entry COc1ccc([C@@H]2[C@@H](Oc3ccccc3)C(=O)N2c2cc(OC)c(OC)c(OC)c2)cc1F and write its reported TGI.
> 100 µM
